Biological target: Neuropeptide Y receptor type 1 (Homo sapiens)
Sequence (P25929 whole entry): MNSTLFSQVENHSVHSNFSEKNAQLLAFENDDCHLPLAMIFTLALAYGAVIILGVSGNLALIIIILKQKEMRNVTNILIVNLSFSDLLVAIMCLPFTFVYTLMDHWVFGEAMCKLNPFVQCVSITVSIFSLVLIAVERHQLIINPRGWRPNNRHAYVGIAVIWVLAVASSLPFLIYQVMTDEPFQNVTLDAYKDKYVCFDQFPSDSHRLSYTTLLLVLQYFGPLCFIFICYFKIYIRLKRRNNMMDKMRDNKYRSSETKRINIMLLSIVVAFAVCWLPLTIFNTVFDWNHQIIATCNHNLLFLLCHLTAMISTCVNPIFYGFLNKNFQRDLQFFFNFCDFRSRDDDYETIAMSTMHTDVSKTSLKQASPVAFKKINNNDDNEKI
Assay: Binding affinity at cloned Neuropeptide Y receptor type 1 expressed in AV-12 cells is evaluated.
Type: cell-based, AV12
quantity_measured: pKi
Worth noting: pKi values are minus log10 of concentrations stated in mol/L.

*Q* What pKi value was documented for this compound, Clc1ccc(OCc2nc3c(OCCCN4CCCCC4)cccc3n2CCCC2CCCNC2)cc1 (stereo unspecified) ?
*A* 8.70

* * *

molecular target: Neuropeptide Y receptor type 1 (Homo sapiens, UniProt P25929); experiment: Binding affinity at cloned Neuropeptide Y-1 receptor expressed in AV-12 cells is evaluated.; type: cell-based, AV12
pKi: −log10 of the molar value.
Decide by pKi: equal to or exceeding 7 means fulfilled, less means not fulfilled.

Solved cases below.
{"chemical_string": "CCOC(=O)CN1CCC(CCCn2c(COc3ccc(Cl)cc3)nc3c(C)cccc32)CC1", "class_name": "not fulfilled"}
{"chemical_string": "Cc1cccc2c1nc(COc1ccc(Cl)cc1)n2CCCC1CCN(CC(=O)O)CC1", "class_name": "not fulfilled"}
{"chemical_string": "Cc1cccc2c1nc(COc1ccc(Cl)cc1)n2CCCC1CCN(CCC(C)C)CC1", "class_name": "fulfilled"}

In the following, a different compound is considered.
*Q* Say whether "Cc1cccc2c1nc(COc1ccc(Cl)cc1)n2CCCC1CCN(CCN2CCCCC2)CC1" shows pKi of 7 or more.
*A* fulfilled

* * *

Target: Neuropeptide Y receptor type 1 (Homo sapiens)
Sequence (P25929 whole entry): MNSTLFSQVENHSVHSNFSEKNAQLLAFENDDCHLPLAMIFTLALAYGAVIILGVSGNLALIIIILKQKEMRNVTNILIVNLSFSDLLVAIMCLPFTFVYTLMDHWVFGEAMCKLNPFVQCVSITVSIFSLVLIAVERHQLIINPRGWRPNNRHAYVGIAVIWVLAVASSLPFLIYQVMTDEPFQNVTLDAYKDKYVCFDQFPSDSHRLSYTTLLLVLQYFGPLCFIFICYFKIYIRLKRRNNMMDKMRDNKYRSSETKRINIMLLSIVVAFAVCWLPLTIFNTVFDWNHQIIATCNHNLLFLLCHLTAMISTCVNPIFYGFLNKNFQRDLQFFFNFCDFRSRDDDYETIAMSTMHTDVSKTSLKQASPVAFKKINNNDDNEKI
Assay: Binding affinity at cloned Neuropeptide Y-1 receptor expressed in AV-12 cells is evaluated.
Format: cell-based, AV12
quantity_measured: pKi
Units for pKi: none; it is -log10 of a concentration expressed in mol/L.

Previously resolved entries follow.
{"chemical_string": "Cc1cccc2c1nc(COc1ccc(Cl)cc1)n2CCCC1CCN(Cc2ccccc2)CC1", "quantity_measured": "pKi", "val": 6.96}
{"chemical_string": "Cc1cccc2c1nc(COc1ccc(Cl)cc1)n2CCCC1CCN(CCCC(N)=O)CC1", "quantity_measured": "pKi", "val": 7.06}

API: the following record is the query input.
*Q* For the compound shown here, "Cc1cccc2c1nc(COc1ccc(Cl)cc1)n2CCCC1CCN(CC(=O)N2CCCCC2)CC1" , give the reported pKi.
*A* 6.87
